Numbers sourced from the NIST ThermoML archive (doi:10.1016/j.jct.2009.06.011).

assay-info: activity coefficient (dimensionless); of the first substance listed, at infinite dilution; xn = mol fraction of the nth substance listed
study-conditions: 308.15 K; 101 kPa; Liquid; Chromatography; x1 = 0
measure-name: activity coefficient

compound	result
C=CCCCC [hex-1-ene] + CCCC[n+]1ccc(C)cc1.O=S(=O)([N-]S(=O)(=O)C(F)(F)F)C(F)(F)F	7.11
CCOCC [diethyl ether] + CCCC[n+]1ccc(C)cc1.O=S(=O)([N-]S(=O)(=O)C(F)(F)F)C(F)(F)F	2.08
c1ccccc1 [benzene] + CCCC[n+]1ccc(C)cc1.O=S(=O)([N-]S(=O)(=O)C(F)(F)F)C(F)(F)F	0.702
C1CCCCCCC1 [cyclooctane] + CCCC[n+]1ccc(C)cc1.O=S(=O)([N-]S(=O)(=O)C(F)(F)F)C(F)(F)F	12.9
C1CCCCC1 [cyclohexane] + CCCC[n+]1ccc(C)cc1.O=S(=O)([N-]S(=O)(=O)C(F)(F)F)C(F)(F)F	8.34
C#CCCCCCC [1-octyne] + CCCC[n+]1ccc(C)cc1.O=S(=O)([N-]S(=O)(=O)C(F)(F)F)C(F)(F)F	4.42
CCCO [propan-1-ol] + CCCC[n+]1ccc(C)cc1.O=S(=O)([N-]S(=O)(=O)C(F)(F)F)C(F)(F)F	2.04
